- testProtocol: Displacement of [3H]SCH23390 from D1-like dopaminergic receptor (unknown origin) in striatal membrane measured after 1 hr by liquid scintillation counting method
- Format: cell membranes, Homo sapiens, Striatum
pKi: −log10 of the molar value.
quantityKind: pKi

C=CCN1CCc2cc(OC)c(OC)cc2C1/C=C/C (stereo not drawn): 4.42

1 = C/C=C/C1NCCc2cc(O)c(O)cc21 (stereo not drawn)
2 = C/C=C/C1c2cc(OC)c(OC)cc2CCN1C (stereo not drawn)
From the recorded data, which exceeds the other in pKi: 1 or 2 ? In your reply, give the label of the chosen option. 2
(2: 4.74, 1: 4.24)

A = C=CCN1CCc2cc(OC)c(OC)cc2C1/C=C/c1ccccc1 (stereo not drawn)
B = NCCc1ccc(O)c(O)c1 [DOPAMINE]
C = C/C=C/C1c2cc(O)c(O)cc2CCN1C (stereo not drawn)
D = COc1cc2c(cc1OC)C(/C=C/c1ccccc1)NCC2 (stereo not drawn)
Highest pKi first, then in falling order down to the smallest. // format: requested-order list of labels B, C, D, A

FYI, the data here is from ChEMBL document CHEMBL3865785.
